Assay: soluble on expression in E. coli; label from the status in PepcDB or PDB records

sequence string	soluble on expression in E. coli
MAHHHHHHMVLITSNCARVAAFTRKAACSGALCDRHRCISGGGRGDLFTRHAGAFKPPAFGVLRGLTHSSQTTHPQTGQLQARKRIQHAMHDRTLSGSGHHRTAVATWSYLLHSLRQNVEQAVPDALYEKLLTDEVPLTPAESRQLADAHRLLRFELQKRIGLLEDSLADAALPYLLQWPALFQRAWLRLPMDQGRASVTEANHDAVVPAPPSFVHAPAALPVTEWAPTLSPASPPACSNGLIGRGALVPRLAQLTRHVIRCVEEDLGRLEHVSEPREDGVPRSRRQVALEAAWRAQWASLLTWHAGVSYGMG	soluble
MGSDKIHHHHHHMTRIALTHVTTYRYGAPVTLGEHKMMFRPRDSHDLHIVEATLVLSPVAEVRWMHDVFGNSITIADFQGASTDFLRFESKILLDHFGLSEPTYPIAAYAETFPFTYDADLVADLGRTNERHYPDPDHRLDAWARRFLDEPGETATLEMLSAMNRAISAEFSYAARDTEGTQTPLETLERGSGSCRDFALLMMEAVRSLGLAARFVSGYLYDPALDGRNASGTVGAGATHAWLQVYLPGAGWVEFDPTNALVGGENLIRVAVTRDPSQAVPITGSFAGPGNAFLSMEVEVTLHRQDQNIQVA	not soluble
GRVESVWDLKGVWADQAQSDSQGSTTTATRNALPEHPNALAFQVSVVEASAYKPNTSSGQTQSTNSSPYLHLVKPKKVTQSDKLDDDLKNLLDPNQVRTKLRQSFGTDHSTQPQPQSLKTTTPVFGTSSGNLSSVLSGGGAGGGSSGSGQSGVDLSPVEKVSGWLVGQLPSTSDGNTSSTNNLAPNTNTGNDVVGVGRLSESNAAKMNDDVDGIVRTPLAELLDGEGQTADTGPQSVKFKSPDQIDFNRLFTHPVTDLFDPVTMLVYDQYIPLFIDIPASVNPKMVRLKVLSFDTNEQSLGLRLEFFKPDQDTQPNNNVQVNPNNGDFLPLLTASSQGPQTLFSPF	soluble
MGSDKIHHHHHHMQPDLLVFGGDLISGPIPLETLDLIYDLKSKYRTASVLGNNDQDIIDSYENKKLSLSNKAQEQIKWVTRLLNEKQILDLKDMPININVGKYFFCHAIADDNRTIFTQKTRISNIKQLFLEVISPFIICGHTHLQFKLKIGSQQIINAGSVGMPFSDKKGAQWLWIENNNFQFRRTLFDEDIAIKNMKNSDFPFVNQFIEEYVKNTVKVRTGYKILRRLEENNRLRK	not soluble
MGSDKIHHHHHHQSMKKEEVPQNISAFPLGKENTGFKQYFTGESWLAPLTGNKDLNVPMSNVTFEPGCRNNWHSHTGGQILIAVGGVGYYQERGKAARRLLPGDVVEIAPDIEHWHGAAPDSWFSHLAIGCNPQTNKNIWLEQVDDQQYAEATKDNGGTGLSATDPELDAIFGNFTKEVQQYGNLDTKTRLMVTLASNIASQAQTEYRMMLESALNAGITPIEIKEILYQAVAYAGMAKVMDFVGITNEALLAHGVRLPLEGQAVVSAETRFDKGLALQKSIFGERIDQMHKNAPENQKHIQRYLSANCFGDYQTRGGLDVKTRELLTFSILVSLGGCESQVKGHIQGNVNVGNNKDTLLAVVTQLLPYIGYPRTLNAIACLNEVIPEK	not soluble
